target: UniProt:P04626
Sequence (P04626 23-1255): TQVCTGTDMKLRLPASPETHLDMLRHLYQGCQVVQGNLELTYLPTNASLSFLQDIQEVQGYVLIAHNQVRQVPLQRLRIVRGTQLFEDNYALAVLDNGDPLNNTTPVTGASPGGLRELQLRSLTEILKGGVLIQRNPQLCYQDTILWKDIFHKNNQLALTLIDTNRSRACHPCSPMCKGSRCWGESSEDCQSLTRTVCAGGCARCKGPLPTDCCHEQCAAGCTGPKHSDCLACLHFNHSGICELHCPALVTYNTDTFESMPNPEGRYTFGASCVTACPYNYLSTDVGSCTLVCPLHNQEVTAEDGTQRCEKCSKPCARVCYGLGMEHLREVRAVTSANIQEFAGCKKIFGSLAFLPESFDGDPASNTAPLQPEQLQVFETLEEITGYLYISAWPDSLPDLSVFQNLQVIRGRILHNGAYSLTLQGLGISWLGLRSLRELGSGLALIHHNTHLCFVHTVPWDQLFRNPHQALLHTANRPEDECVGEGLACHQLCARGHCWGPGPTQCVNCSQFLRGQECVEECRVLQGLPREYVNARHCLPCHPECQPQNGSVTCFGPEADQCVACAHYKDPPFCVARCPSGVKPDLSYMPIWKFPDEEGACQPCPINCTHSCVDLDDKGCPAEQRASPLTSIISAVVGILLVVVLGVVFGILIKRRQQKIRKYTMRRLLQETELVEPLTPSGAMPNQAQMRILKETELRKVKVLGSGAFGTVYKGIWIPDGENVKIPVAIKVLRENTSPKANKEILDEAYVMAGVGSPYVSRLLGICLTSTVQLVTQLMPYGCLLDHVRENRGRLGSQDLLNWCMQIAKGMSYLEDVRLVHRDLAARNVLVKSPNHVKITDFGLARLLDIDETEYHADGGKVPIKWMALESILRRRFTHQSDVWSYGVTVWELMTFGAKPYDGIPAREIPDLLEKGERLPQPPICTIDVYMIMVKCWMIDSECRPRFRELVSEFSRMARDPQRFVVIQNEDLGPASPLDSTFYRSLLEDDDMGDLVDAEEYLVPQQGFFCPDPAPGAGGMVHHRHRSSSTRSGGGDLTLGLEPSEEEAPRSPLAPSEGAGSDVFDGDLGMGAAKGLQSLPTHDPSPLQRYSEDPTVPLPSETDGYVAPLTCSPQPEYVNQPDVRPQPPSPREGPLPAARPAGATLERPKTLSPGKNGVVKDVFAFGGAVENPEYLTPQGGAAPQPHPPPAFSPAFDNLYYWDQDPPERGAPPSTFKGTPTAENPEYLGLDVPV
readout name: pIC50
Numbers only, as −log10 of the molar value.

# pIC50 of C=CC(=O)N1CCC[C@@H](n2c(=O)n(-c3ccc(Oc4ccccc4)cc3)c3c(N)nccc32)C1 = 7.60

* * *

target: UniProtKB P51813; test: Covalent reaction (kinact/Ki), real-time competition with a fluorescent active site ligand, BMX
Sequence (P51813 whole entry): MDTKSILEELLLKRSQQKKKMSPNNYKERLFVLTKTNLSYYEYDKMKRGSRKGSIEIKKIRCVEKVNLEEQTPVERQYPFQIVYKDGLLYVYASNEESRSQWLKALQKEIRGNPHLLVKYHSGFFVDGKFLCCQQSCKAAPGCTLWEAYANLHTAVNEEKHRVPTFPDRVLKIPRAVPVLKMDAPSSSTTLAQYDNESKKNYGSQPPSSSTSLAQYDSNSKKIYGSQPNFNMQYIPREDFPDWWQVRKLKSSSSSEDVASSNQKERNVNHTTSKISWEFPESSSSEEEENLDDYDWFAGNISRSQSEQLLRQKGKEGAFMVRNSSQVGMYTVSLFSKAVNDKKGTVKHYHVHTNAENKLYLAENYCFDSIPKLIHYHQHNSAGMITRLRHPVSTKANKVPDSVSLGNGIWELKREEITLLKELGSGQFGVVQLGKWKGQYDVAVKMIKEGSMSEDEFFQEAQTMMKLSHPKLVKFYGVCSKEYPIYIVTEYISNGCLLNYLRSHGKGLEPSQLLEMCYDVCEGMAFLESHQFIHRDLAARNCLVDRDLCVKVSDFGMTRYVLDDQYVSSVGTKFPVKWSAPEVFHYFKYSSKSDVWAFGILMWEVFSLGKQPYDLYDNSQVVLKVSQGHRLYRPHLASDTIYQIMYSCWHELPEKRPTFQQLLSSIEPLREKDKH
readout name: Ki

# Ki of C=CC(=O)N1CCC[C@@H](n2c(=O)n(-c3ccc(Oc4ccccc4)cc3)c3c(N)nccc32)C1 [Tolebrutinib] = 0.042 µM

* * *

biological target: FGFR1 (Homo sapiens)
Sequence (P11362 22-822): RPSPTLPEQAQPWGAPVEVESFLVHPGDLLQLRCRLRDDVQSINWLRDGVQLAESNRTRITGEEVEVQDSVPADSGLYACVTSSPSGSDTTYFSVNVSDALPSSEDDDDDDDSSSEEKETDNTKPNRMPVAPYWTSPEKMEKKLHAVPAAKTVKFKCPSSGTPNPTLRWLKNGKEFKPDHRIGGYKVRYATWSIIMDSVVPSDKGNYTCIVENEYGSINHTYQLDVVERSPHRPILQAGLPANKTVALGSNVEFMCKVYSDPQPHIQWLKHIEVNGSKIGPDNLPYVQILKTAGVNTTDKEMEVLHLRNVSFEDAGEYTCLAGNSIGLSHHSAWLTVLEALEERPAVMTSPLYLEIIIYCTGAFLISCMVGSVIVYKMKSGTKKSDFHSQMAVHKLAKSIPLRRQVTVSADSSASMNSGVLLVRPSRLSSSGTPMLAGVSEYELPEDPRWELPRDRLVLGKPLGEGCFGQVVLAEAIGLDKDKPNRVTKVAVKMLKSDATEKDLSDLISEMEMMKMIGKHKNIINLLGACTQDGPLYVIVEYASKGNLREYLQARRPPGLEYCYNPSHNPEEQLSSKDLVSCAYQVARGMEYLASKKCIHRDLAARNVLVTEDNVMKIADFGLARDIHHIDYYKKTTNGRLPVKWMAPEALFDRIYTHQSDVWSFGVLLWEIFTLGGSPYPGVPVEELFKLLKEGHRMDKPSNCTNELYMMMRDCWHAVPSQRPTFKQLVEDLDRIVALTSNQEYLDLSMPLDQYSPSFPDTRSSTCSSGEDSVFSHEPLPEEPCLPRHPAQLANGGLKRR
readout name: pIC50
Answers are plain numbers, as −log10 of the molar value.

# pIC50 of C=CC(=O)N1CCC(CNc2ncnc(N)c2-c2ccc(Oc3ccccc3)cc2)CC1 = 5.38

* * *

target: CDK8/cycC (Homo sapiens, UniProt P49336); assay: Kinase selectivity IC50, CDK8/cycC; conditions: unpublished
readout name: IC50 (µM)
One number for each entry, in µM.

# IC50 of C=CC(=O)N1CCC(CNc2ncnc(N)c2-c2ccc(Oc3ccccc3)cc2)CC1 = 3.5

* * *

target: BRK (Homo sapiens, UniProt Q13882)
Sequence (Q13882 whole entry): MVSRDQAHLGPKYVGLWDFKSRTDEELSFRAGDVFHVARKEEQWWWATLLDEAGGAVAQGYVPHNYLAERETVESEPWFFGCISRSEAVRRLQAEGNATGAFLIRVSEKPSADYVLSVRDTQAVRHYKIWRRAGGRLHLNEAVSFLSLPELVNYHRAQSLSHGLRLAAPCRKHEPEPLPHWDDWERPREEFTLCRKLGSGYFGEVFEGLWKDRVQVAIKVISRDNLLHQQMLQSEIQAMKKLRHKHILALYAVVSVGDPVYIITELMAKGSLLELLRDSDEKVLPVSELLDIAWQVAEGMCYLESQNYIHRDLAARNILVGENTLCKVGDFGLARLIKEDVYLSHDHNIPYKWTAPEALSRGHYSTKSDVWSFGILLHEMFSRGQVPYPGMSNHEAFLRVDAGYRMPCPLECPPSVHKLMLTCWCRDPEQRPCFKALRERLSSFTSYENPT
Please respond with reported IC50 for every item in the list.
Param answer (str): number followed by unit.

In [3]: df
Out[3]:
                         structure_notation  readout_name  observed_result
0  C=CC(=O)N1CCC(CNc2ncnc(N)c2-c2ccc(Oc3ccccc3)cc2)CC1          IC50          6.02 µM

// switching to the query molecule
# IC50 of C=CC(=O)N1CCC[C@@H](n2c(=O)n(-c3ccc(Oc4ccccc4)cc3)c3c(N)nccc32)C1 = 0.044 µM

* * *

target: FRK (Homo sapiens, UniProt P42685)
readout name: pIC50
Answers are plain numbers, as −log10 of the molar value.

Assay FRK (Homo sapiens, UniProt P42685), sample C=CC(=O)N1CCC[C@@H](n2c(=O)n(-c3ccc(Oc4ccccc4)cc3)c3c(N)nccc32)C1 [Tolebrutinib] , pIC50 read: 6.64

* * *

target: HCK (Homo sapiens, UniProt P08631)
readout name: IC50 (nM)
Answers are plain numbers, in nM.

# IC50 of C=CC(=O)N1CCC[C@@H](n2c(=O)n(-c3ccc(Oc4ccccc4)cc3)c3c(N)nccc32)C1 = 91

* * *

biological target: RET (Homo sapiens)
Sequence (P07949 29-1114): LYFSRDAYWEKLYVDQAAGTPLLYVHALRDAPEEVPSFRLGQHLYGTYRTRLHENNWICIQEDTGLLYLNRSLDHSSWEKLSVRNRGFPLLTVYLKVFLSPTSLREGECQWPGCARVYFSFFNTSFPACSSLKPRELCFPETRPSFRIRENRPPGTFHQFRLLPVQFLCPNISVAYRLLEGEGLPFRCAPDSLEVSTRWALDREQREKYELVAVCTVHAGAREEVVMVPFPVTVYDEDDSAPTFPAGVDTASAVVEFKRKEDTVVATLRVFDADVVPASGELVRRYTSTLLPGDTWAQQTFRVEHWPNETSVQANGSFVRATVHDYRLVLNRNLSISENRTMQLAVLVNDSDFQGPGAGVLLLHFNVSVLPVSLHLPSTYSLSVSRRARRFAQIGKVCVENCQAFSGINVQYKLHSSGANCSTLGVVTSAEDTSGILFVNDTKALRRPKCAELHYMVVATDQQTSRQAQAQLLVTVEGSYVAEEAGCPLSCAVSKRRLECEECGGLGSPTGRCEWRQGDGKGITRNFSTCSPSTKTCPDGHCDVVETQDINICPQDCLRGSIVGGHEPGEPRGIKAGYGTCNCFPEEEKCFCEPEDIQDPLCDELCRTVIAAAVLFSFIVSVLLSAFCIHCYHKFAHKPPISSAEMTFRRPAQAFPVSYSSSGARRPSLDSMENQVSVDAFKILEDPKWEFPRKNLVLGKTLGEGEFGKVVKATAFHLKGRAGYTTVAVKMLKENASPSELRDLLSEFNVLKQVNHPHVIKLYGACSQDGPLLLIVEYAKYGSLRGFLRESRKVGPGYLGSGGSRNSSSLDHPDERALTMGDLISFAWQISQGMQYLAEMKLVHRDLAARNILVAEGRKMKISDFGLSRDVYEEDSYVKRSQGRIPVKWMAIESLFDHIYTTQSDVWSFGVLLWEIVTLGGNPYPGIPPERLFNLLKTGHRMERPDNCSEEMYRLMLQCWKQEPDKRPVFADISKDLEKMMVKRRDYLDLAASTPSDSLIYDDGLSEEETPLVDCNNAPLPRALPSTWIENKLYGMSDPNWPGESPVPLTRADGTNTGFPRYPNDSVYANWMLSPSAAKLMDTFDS
readout name: IC50 (µM)
Answers are plain numbers, in µM.

# IC50 of C=CC(=O)N1CCC(CNc2ncnc(N)c2-c2ccc(Oc3ccccc3)cc2)CC1 = 8.63

* * *

target: LCK (Homo sapiens)
Sequence (P06239 whole entry): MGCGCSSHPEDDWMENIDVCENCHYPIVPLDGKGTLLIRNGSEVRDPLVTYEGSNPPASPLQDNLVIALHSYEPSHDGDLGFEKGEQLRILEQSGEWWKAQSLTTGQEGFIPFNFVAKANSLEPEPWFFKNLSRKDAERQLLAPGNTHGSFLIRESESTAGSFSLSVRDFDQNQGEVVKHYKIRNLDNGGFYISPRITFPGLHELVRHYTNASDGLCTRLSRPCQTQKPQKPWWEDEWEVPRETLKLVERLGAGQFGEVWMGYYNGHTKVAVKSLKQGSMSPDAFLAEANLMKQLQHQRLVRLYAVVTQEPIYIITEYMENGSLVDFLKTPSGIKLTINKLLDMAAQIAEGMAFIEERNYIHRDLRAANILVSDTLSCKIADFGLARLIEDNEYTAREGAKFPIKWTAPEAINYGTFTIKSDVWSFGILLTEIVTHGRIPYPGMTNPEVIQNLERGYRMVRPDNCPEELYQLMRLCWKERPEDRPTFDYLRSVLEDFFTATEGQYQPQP
readout name: pIC50
Give bare numbers, as −log10 of the molar value.

Assay LCK (Homo sapiens), sample C=CC(=O)N1CCC(CNc2ncnc(N)c2-c2ccc(Oc3ccccc3)cc2)CC1 [Evobrutinib] , pIC50 read: 5.42

* * *

Biological target: FLT3 (Homo sapiens, UniProt P36888)
Sequence (P36888 27-993): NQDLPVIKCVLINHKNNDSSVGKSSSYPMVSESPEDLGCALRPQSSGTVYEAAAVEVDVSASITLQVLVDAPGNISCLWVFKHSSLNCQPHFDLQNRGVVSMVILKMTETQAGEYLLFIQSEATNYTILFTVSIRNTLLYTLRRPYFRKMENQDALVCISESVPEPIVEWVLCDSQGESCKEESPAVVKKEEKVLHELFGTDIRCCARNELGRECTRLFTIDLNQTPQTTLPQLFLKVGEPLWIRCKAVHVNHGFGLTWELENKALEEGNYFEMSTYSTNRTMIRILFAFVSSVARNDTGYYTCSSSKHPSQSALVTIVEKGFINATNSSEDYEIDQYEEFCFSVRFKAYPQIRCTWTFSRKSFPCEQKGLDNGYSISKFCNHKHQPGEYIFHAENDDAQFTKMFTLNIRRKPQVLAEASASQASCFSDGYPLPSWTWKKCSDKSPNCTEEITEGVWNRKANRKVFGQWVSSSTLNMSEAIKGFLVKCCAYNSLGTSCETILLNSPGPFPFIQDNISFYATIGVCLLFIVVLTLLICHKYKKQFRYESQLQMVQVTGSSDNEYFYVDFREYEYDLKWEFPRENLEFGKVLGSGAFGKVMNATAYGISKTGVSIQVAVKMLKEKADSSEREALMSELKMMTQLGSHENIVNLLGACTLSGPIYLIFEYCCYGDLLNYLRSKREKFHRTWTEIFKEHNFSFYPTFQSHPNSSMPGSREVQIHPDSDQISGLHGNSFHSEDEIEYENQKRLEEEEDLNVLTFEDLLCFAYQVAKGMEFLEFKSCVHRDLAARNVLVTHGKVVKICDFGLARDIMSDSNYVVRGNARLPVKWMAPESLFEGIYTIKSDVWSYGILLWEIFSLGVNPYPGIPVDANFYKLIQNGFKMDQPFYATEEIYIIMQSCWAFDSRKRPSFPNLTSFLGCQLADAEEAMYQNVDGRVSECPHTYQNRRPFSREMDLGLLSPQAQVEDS
readout name: IC50 (nM)
Numbers only, in nM.

# IC50 of C=CC(=O)N1CCC(CNc2ncnc(N)c2-c2ccc(Oc3ccccc3)cc2)CC1 [Evobrutinib] = 2250

The reported numbers originate from patent US20230091561A1.
